Recorded IC50 for molecules tested on Glucocorticoid receptor (Homo sapiens, UniProt P04150), drawn from a number of studies.
Sequence (P04150 whole entry): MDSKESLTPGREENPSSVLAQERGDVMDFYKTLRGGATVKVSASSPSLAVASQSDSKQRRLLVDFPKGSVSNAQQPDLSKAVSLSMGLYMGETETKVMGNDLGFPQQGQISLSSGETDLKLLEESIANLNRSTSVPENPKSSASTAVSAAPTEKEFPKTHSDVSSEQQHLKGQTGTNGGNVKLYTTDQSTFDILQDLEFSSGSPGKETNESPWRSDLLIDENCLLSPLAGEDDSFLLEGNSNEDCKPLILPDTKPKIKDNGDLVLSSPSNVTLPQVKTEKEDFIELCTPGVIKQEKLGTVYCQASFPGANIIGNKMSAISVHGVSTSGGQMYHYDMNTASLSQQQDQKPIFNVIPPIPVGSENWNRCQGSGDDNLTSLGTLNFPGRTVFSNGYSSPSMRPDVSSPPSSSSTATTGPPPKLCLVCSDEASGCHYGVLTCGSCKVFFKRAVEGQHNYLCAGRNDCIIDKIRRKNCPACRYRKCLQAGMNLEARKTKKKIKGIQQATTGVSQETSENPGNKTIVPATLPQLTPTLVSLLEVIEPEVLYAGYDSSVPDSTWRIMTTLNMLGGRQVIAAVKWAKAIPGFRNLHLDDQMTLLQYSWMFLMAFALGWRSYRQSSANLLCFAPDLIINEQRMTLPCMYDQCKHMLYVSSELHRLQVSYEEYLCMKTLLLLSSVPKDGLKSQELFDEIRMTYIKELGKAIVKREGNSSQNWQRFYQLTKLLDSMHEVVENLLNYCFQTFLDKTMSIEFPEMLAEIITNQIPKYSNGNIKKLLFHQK

IC50 for CC[C@]12CC[C@@](O)(COC)C[C@H]1CCOc1cc3c(cnn3-c3ccc(F)cc3)cc12 is < 100 nM

Notebook: C[C@@]1(O)CC[C@@]2(Cc3ncccn3)c3cc4cnn(-c5ccc(F)cc5)c4nc3CCC[C@H]2C1 , IC50 read as 100 to 1000 nM

Kindly note the recorded IC50 for CC[C@@]1(O)CC[C@@]2(Cc3ccccc3)c3ccc(C(=O)Nc4cccnc4C)cc3C(=O)OC[C@H]2C1 , which is 100 to 1000 nM

Respectfully, I request IC50 for each entry included below.
1. CCn1nc(-c2ccccn2)c2c1N[C@H](C)CS[C@@H]2c1ccc(CCC(C)(C)O)cc1C (single isomer, unassigned)
2. Cc1ncccc1NC(=O)c1ccc2c(c1)CCC[C@H]1C[C@@](O)(COCC(F)(F)F)CC[C@@]21Cc1ccccc1 (racemic)

100 to 1000 nM
< 100 nM
